System: Pseudomonas aeruginosa
procedure.summary: Antibacterial activity against Pseudomonas aeruginosa CCM 1961 assessed as growth inhibition after 24 to 48 hrs by microbroth dilution method
Type: functional, organism-based
Active and inactive are the calls of the source. The calls are words filed in the database; no cut-off is given here.
recorded.metric: growth inhibition (GI)

O=C(NCc1ccc(Br)cc1)c1cnc(Cl)cn1 : inactive
Cc1ccccc1CNC(=O)c1cnc(Cl)cn1 : inactive
O=C(Nc1cccc([N+](=O)[O-])c1)c1cnc(Cl)cn1 : inactive

* * *

Test system: Klebsiella pneumoniae
procedure.summary: Antibacterial activity against Klebsiella pneumoniae D 11750/08 clinical isolate assessed as growth inhibition after 24 to 48 hrs by microbroth dilution method
Assay type: functional, organism-based
Calls of active or inactive are those of the source. The calls are words filed in the database; no cut-off is given here.
recorded.metric: growth inhibition (GI)

O=C(NCc1ccccc1F)c1cnc(Cl)cn1 : inactive
COc1ccc(CNC(=O)c2cnc(Cl)cn2)c(OC)c1 : inactive
O=C(NCc1ccc(Cl)cc1Cl)c1cnc(Cl)cn1 : inactive
